tested on: DMS 273 small cell lung; experiment: NCI tumour cell line growth inhibition, 48 h
Parameter Measured: TGI

Reference set, count: 3
CCOC1=CP(=O)(OCC)CC(C)=C1Cl (stereo not given) ... 75.2 µM
Cc1ccc(S(=O)(=O)O/N=C2\CCC\C2=C/c2ccccc2)cc1 ... > 100 µM
CN(C)C=C1C(=O)N(C)C(=O)N(C)C1=O ... > 100 µM

Sure, the documented TGI for COc1ccc(/C=C/C(=O)C(C)C)cc1 is > 100 µM

// sample Cc1nc(-c2nc(C)c(C(=O)/C=C/c3ccc(N(C)C)cc3)s2)sc1C(=O)/C=C/c1ccc(N(C)C)cc1 , its TGI was > 100 µM

###

system: A498 renal; experiment: NCI tumour cell line growth inhibition, 48 h; in the data active = GI50 below about 0.43 µM; inactive = the rest
// allowed return values: Y for active, N for inactive

N#CC(C#N)=C/C=C(\Sc1ccc(F)c(Cl)c1)c1ccc(Cl)cc1 ... N
CCCCCCCCCCCCC[N+](C)(C)Cc1ccccc1 ... N
Cc1cc(C)c(CNC(=O)c2cc(-c3ccc(CN4CCOCC4)cc3)cc3c2cnn3C2CCCC2)c(=O)[nH]1 ... N
Nc1nc2c(c3cnccc13)C(c1cccc(Br)c1)Cc1cnccc1-2 (stereo not given) ... Y
COc1cc(-n2cncc2-c2ccc3ccccc3c2)cc(OC)c1OC ... Y
Cc1cccc(NC(=O)c2sc3nc4c(cc3c2N)CCCC4)c1 ... N
CC(C)(O)c1coc(S(=O)(=O)/N=C(\O)Nc2c3c(cc4c2CCC4)CCC3)c1 ... N
Cn1cc(C2=C(Sc3ccccc3)C(=O)NC2=O)c2ccccc21 ... N
COc1cc(/C=C2\CC3C4CCC5=CC(=O)CC[C@]5(C)C4CC[C@]3(C)C2=O)ccc1OCCCn1ccnc1 (stereo not given in full) ... N
CC(=O)OCC1OC(OC2=C(CC=C(C)C)C(=O)c3ccccc3C2=O)C(OC(C)=O)C(OC(C)=O)C1OC(C)=O (stereo not given) ... N

Data request: Call for entry Cn1nc(-c2cccs2)cc1/N=C(\N)C(C)(C#N)Cc1ccccc1 (stereo not given) :
Data returned: N

###

test system: TK-10 renal; assay: NCI tumour cell line growth inhibition, 48 h; in the data active = GI50 below about 0.43 µM; inactive = the rest
Parameter call: string, one of true (1) for active, false (0) for inactive

Solved entries (count: 4):
c1cc(N2CCCC2)c2nc(-c3[nH]ncc3Nc3ncnc4[nH]ccc34)[nH]c2c1 ... true (1)
CC(=O)Nc1ccc(-c2csc(Nc3ccc(-c4csc(-c5ccccc5)n4)cc3)n2)cc1 ... false (0)
CC(C)(C)N=Cc1ccccc1[O-].CC(C)(C)N=Cc1ccccc1[O-].[Co+2] ... false (0)
COc1cc(CC(C)C(C)Cc2ccc(O)c(OC)c2)ccc1O (stereo not given) ... false (0)

Now take the following compound into account.
Data request: Returns: the outcome recorded for CN(C)c1ccc2nc3ccc(=N)cc-3sc2c1 in this assay.
Data returned: false (0)

###

test system: OVCAR-3 ovarian; experiment: NCI tumour cell line growth inhibition, 48 h; in the data active means GI50 below about 0.43 µM; inactive means the rest
Choose one outcome from this list and give only that: T for active, F for inactive

Solved cases (4 shown):
N#CC(C#N)=C/C=C(\Sc1ccc(F)c(Cl)c1)c1ccc(Cl)cc1 ... F
Nc1ccc2c(c1)Cc1cc(Cl)c(Cl)cc1-2 ... F
O=C1OCC2=C1C(c1cccc(F)c1)c1cc3c(cc1N2CCO)CCC3 (configuration not stated) ... T
CC#Cc1nc2ccccc2c(=O)[nH]1 ... F

Data request: What outcome does the record of this test show for COC(=O)c1c2c(c[n+]([O-])c1C)C(=O)C=C(NCc1ccccc1)C2=O ?
Data returned: T

Data request: Recorded test call requested for CCC[CH2][Sn]([CH2]CCC)([O]C(=O)Cc1ccc(F)cc1)[O]C(=O)Cc1ccc(F)cc1
Data returned: F

Data request: Please indicate how the test categorized COc1cc2c3c(n(CCCN=[N+]=[N-])c(=O)c2cc1OC)-c1ccc(C#N)cc1C3=O .
Data returned: F

Data request: Short answer needed: outcome of this test for Nc1nc(-c2cccc3ccccc23)cc2ccccc12 ?
Data returned: T

Data request: I'd appreciate the recorded outcome for CN(C)c1ccc2nc3ccc(=N)cc-3sc2c1 from this test.
Data returned: F

Data provenance is PubChem BioAssay (NCI).
